- System: OVCAR-4 ovarian
- experimental.details: NCI tumour cell line growth inhibition, 48 h

| sample.smiles | TGI |
| --- | --- |
| Cn1c(=O)c2[nH]c(CCC(=O)O)nc2n(C)c1=O | > 100 µM |
| C/C(=C\c1ccccc1)C(=O)NCc1ccc(C(=O)NCCc2c[nH]c3ccccc23)cc1 | > 100 µM |
| O=c1oc2ccccc2c(O)c1Cc1cccc(Cc2c(O)c3ccccc3oc2=O)c1 | > 100 µM |
| CC(=O)Nc1cc2cc(NS(=O)(=O)c3cc(C(F)(F)F)cc(C(F)(F)F)c3)ccc2oc1=O | > 100 µM |
| Cc1cc(Cl)ccc1NC(=O)NC(C)(C)COC(=O)Nc1cccc(Cl)c1 | 90.6 µM |
| O=C(/C=C/c1ccccc1)CCc1c(O)c2ccccc2oc1=O | > 100 µM |
| CC(C)c1nccn1Cc1ccc(Cl)cc1Cl | > 100 µM |
| CSc1ccccc1P(CCP(c1ccccc1SC)c1ccccc1SC)c1ccccc1SC | > 100 µM |
| CN(C)c1ccc(/C=C2\C[C@H]3[C@@H]4CCc5cc(O)ccc5[C@H]4CC[C@]3(C)C2=O)cc1 | > 100 µM |
| COC(=O)/C=C\C(C#N)(C#N)N=Cc1ccsc1 | 32.5 µM |

###

- Tested on: HS 578T breast
- experimental.details: NCI tumour cell line growth inhibition, 48 h
Rule: TGI under 70 µM gives Not met, otherwise Met.

| compound | label.class |
| --- | --- |
| N#Cc1c(-c2ccc(Cl)cc2)cc(-c2nc3ccccc3[nH]2)nc1N | Met |
| CCCCCCCCC[n+]1cccc(C2C(C(=O)OCC)=C(C)NC(C)=C2C(=O)OCC)c1 | Not met |
| Cc1cc(Cl)ccc1NC(=O)NC(C)(C)COC(=O)Nc1cccc(Cl)c1 | Not met |
| c1ccc2c(c1)c1c3n2-c2cc(on2)C3CCC1 (stereo unspecified) | Met |
| CCOC(=O)c1cn(C)nc1N/C(C)=C\C(=O)c1ccccc1 | Met |
| CCC1CCC2c3c([nH]c4ccccc34)C3C(=O)N(c4ccc(OC)cc4)C(=O)C3C2C1 (stereo unspecified) | Not met |
| CC1(C)CC(=O)C(=CN2C(=O)CNC2=S)C(=O)C1 | Met |
| O=C(NCc1cccnc1)C(=O)NCc1cccnc1 | Met |
| OC(O)(C(F)(F)F)C(F)(F)F | Met |
| Cc1cc(O)c2c(c1)C(=O)C(c1c(C)cc3c(c1O)C(=O)C1OC1C3=O)=CC2=O (stereo unspecified) | Met |
| O=C(/C=C/c1ccccc1)CCc1c(O)c2ccccc2oc1=O | Met |

###

- Test system: UACC-257 melanoma
- experimental.details: NCI tumour cell line growth inhibition, 48 h
Consider the following compounds and their measured TGI readings.

| compound | TGI |
| --- | --- |
| CC(C)(O)CCC(O)C(C)(O)C1CCC2(O)C3=CC(=O)C4(O)CC(O)C(O)CC4(C)C3CCC12C (centres undefined) (tested in a mixture with another compound) | > 100 µM |
| C[C@H]1CC2=CC(=O)CC[C@]2(C)[C@H]2CC[C@@]3(C)[C@@H](CC[C@]3(C)O)[C@H]12 | > 94.1 µM |
| C/C(=C\CNc1nc(Cl)nc2nc[nH]c12)CO | > 100 µM |
| S=C(Nc1ccc2c(c1)Cc1ccccc1-2)Nc1ccc2c(c1)Cc1ccccc1-2 | > 100 µM |

###

- Tested on: MDA-MB-435
- experimental.details: NCI tumour cell line growth inhibition, 48 h; in the data active = GI50 below about 0.43 µM; inactive = the rest
Classes used: active, inactive

| molecule | label.class |
| --- | --- |
| N#Cc1ccc2c(c1)C(=O)c1c-2n(CCCN=[N+]=[N-])c(=O)c2cc([N+](=O)[O-])ccc12 | inactive |
| N#C/C(=C\c1cccnc1)c1nc2ccccc2o1 | inactive |
| N#CC1CCc2c(c(-c3cn[nH]c3C(F)(F)F)nc3c(F)cc4[nH]ncc4c23)C1 (stereo not given) | inactive |
| CS(=O)(=O)Nc1cc(-c2ccc3ncnc(Nc4cccc(Cl)c4F)c3c2)cnc1Cl | inactive |
| C#CCOc1cccc(Nc2ncc3ncn(C4CCN(C(=O)CCl)C4)c3n2)c1 (stereo not given) | inactive |
| Cc1c(N)nc(C(CC(N)=O)NCC(N)C(N)=O)nc1C(=O)NC(C(=O)NC(C)C(O)C(C)C(=O)NC(C(=O)NCCc1nc(-c2nc(C(=O)NCCCNCCCCN)cs2)cs1)C(C)O)C(OC1OC(CO)C(O)C(O)C1OC1OC(CO)C(O)C(OC(N)=O)C1O)c1cnc[nH]1 (stereo not given) | inactive |
| CCC1OC(/C(C)=C/C(C)/C=C/C2C(C)C2/C=C/C2OC(CC(=O)O)CC(O)C2O)CC=C1C (stereo not given) | inactive |
| Cc1nc2sc(C(=O)Nc3cccc(Cl)c3C)c(N)c2cc1C(C)O (stereo not given) | active |
| O=c1oc2cc(OS(=O)(=O)c3ccccc3)ccc2c2c1CCCCC2 | inactive |
| O=c1[nH]cnc2nc(-c3ccc(N(CCCl)CCCl)cc3)[nH]c12 | inactive |
| CC[C@H](C)[C@H](NC(=O)c1nccn1C)C(=O)N(C)[C@H](C[C@@H](OC(C)=O)c1nc(C(=O)N[C@@H](Cc2ccccc2)C[C@H](C)C(=O)OC)cs1)C(C)C | active |
| C=C1C(=O)O[C@H]2[C@H]1CC/C(COC(=O)/C=C/c1c[nH]c3ccccc13)=C\CC[C@@]1(C)O[C@@H]21 | active |
| Brc1ccc2c(c1)c(-c1nc(-c3c[nH]c4ncccc34)cs1)cn2CCCN1CCCCC1 | inactive |
| Cc1cc(Cl)ccc1NC(=O)NC(C)(C)COC(=O)Nc1cccc(Cl)c1 | inactive |
| CN(C)c1ccc(N=C(C#N)c2nc(N)nc(N3CCN(c4ccccc4)CC3)n2)cc1 | inactive |

###

- Test system: NCI/ADR-RES ovarian
- experimental.details: NCI tumour cell line growth inhibition, 48 h
recorded.endpoint: TGI

| compound | study.target | recorded.endpoint | result |
| --- | --- | --- | --- |
| C=C1C(=O)O[C@H]2C3C(=C(C)CC[C@@H]12)C(=O)[C@@H]1OC31C (stereo not given in full) | NCI/ADR-RES ovarian | TGI | 10.7 µM |
| O=S(=O)(O)c1ccc(Nc2ccnc3cc(Cl)ccc23)cc1 | NCI/ADR-RES ovarian | TGI | > 100 µM |
| COC(=O)c1c(C#C[Si](C)(C)C)c(C#C[Si](C)(C)C)c(C#C[Si](C)(C)C)c(C#C[Si](C)(C)C)c1C(=O)OC | NCI/ADR-RES ovarian | TGI | > 100 µM |
| Cc1cc(C)c2c(c1)CC1(Cc3c(C)cc(C)cc3C1=O)C2=O (stereo not given) | NCI/ADR-RES ovarian | TGI | > 100 µM |
| COC(=O)/C=C\C(C#N)(C#N)N=Cc1ccsc1 | NCI/ADR-RES ovarian | TGI | > 19.7 µM |

###

- System: NCI-H23 lung
- experimental.details: NCI tumour cell line growth inhibition, 48 h
Consider the following compounds and their measured TGI readings.

| compound | TGI |
| --- | --- |
| C[C@@H]1OCC(O)C([C@H]2OC(c3ccccc3)=N[C@H]2CO)O1 (stereo not given in full) | > 100 µM |
| CC[C@H](C)[C@H](NC(=O)c1nccn1C)C(=O)N(C)[C@H](C[C@@H](OC(C)=O)c1nc(C(=O)N[C@@H](Cc2ccccc2)C[C@H](C)C(=O)OC)cs1)C(C)C | > 33.3 µM |
| Cc1ccc(S(=O)(=O)c2ccsc2N)cc1 | > 100 µM |
| C=C(C(=O)OC)[C@H]1CC/C(C)=C/CC/C(C)=C/CC[C@@]2(C)O[C@@H]2C1 | 68.1 µM |
| COc1ccc(N2C(=O)C(N3C(=O)C=CC3=O)C2C=O)cc1 (stereo not given) | > 100 µM |
| COC1=CC(=O)c2c(cc(COP(=O)(N(C)CCBr)N(C)CCBr)n2C)C1=O | 2.28 µM |
| O=c1cccccc1NCCNc1cccccc1=O | > 100 µM |
| N[C@H](C(=O)O)[C@@H](Cl)CC(=O)O | > 100 µM |
| O=C(C=P(c1ccccc1)(c1ccccc1)c1ccccc1)c1ccc(-c2ccc(F)cc2F)cc1 | 12.2 µM |
| COc1cccc2ccc3c(c12)C(=O)OC31CCc2c(C)cccc21 (stereo not given) | > 46.4 µM |

###

- Test system: A549 NSCLC
- experimental.details: NCI tumour cell line growth inhibition, 48 h
recorded.endpoint: GI50

| sample.smiles | study.target | result |
| --- | --- | --- |
| CC(=O)NS(=O)(=O)c1ccc(-n2nc(-c3ccccc3)cc2C2=CC(=O)C=CC2=O)cc1 | A549 NSCLC | > 100 µM |
| C(#Cc1ccccc1C#Cc1ccccn1)c1ccccn1 | A549 NSCLC | 20.5 µM |
| Cc1ccc(S(=O)(=O)c2ccsc2N)cc1 | A549 NSCLC | > 100 µM |
| N#C/C(=C\c1cccnc1)c1nc2ccccc2o1 | A549 NSCLC | > 100 µM |
| CC(=O)O[C@H](C[C@H](C(C)C)N(C)C(=O)[C@@H](NC(=O)[C@H]1CCCCN1C)C(C)(C)C)c1nc(C(=O)N[C@@H](Cc2ccccc2)C[C@H](C)C(=O)O)cs1 | A549 NSCLC | < 0.0025 µM |
| CC1(C)N=C(N)N=C(N)N1c1ccc(OCCCCNC(=O)c2ccc(S(=O)(=O)F)cc2)c(Cl)c1 | A549 NSCLC | 4.17 µM |
| C=C1C[C@@H]2[C@H](CC[C@]3(C)C(=O)CC[C@@H]23)[C@@]2(C)C=CC(=O)C=C12 | A549 NSCLC | 11.5 µM |
| CCCNc1cccc(-n2ncc3c(N/N=C/c4ccncc4)ncnc32)c1 | A549 NSCLC | > 7.61 µM |
| C/C=C/C(=O)[O-].N.N.N.N.N.[Co+3].[O-][Cl+3]([O-])([O-])[O-] | A549 NSCLC | > 100 µM |

Measured values drawn from PubChem BioAssay (NCI) for this set.
